- study.target: androgen receptor (rat ventral prostate cytosol) (Rattus norvegicus)
- Construct: from tissue; host or cells: ventral prostate cytosol of castrated male Sprague Dawley or Wistar rats
- Sequence (P15207 1-902): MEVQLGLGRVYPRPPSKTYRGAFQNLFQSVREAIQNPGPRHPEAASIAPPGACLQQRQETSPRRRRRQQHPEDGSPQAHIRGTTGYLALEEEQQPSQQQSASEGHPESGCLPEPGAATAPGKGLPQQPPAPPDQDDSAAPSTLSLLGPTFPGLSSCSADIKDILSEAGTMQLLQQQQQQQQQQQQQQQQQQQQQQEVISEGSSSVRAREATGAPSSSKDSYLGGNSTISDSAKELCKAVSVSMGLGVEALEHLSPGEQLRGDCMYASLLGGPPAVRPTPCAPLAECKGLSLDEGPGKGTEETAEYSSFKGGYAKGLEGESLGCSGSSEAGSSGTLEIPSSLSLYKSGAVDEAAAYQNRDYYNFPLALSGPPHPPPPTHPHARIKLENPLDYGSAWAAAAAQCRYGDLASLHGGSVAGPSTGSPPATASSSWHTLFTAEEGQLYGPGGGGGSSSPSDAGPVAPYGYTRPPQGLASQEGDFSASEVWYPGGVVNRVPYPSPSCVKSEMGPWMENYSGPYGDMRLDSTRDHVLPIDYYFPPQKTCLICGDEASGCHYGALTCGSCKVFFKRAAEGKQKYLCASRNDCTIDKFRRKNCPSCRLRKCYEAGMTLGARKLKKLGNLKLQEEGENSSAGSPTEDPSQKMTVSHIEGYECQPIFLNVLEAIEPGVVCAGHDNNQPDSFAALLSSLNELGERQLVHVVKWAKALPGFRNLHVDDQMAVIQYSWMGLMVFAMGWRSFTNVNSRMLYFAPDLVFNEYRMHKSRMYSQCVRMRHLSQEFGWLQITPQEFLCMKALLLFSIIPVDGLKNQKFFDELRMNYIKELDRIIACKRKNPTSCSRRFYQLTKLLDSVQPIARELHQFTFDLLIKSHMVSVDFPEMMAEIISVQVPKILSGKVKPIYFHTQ
- measurement.description: Androgen Receptor Binding Using Rat Ventral Prostate Cytosol
- condition.context: Concentration 3000 nM
Listing of entries alongside the reported inhibition at 3 µM.
measured.quantity: inhibition at 3 µM (%)

INSERT INTO measurements (compound, measured_quantity, recorded_measurement) VALUES
  ('CCSCC(O)c1cc2cc([N+](=O)[O-])c(C(F)(F)F)cc2[nH]1 (centres unmarked)', 'inhibition at 3 µM', 52),
  ('CSCC(C)(O)c1cc2cc(Cl)c(C(F)(F)F)cc2[nH]1 (centres unmarked)', 'inhibition at 3 µM', 130),
  ('CC(O)(CS(C)(=O)=O)c1cc2cc(Cl)c(C(F)(F)F)cc2[nH]1 (centres unmarked)', 'inhibition at 3 µM', 110),
  ('CCCSCC(C)(O)c1cc2cc([N+](=O)[O-])c(C(F)(F)F)cc2[nH]1 (centres unmarked)', 'inhibition at 3 µM', 41),
  ('COc1ccc(SCC(C)(O)c2cc3cc(Cl)c(C(F)(F)F)cc3[nH]2)cc1 (centres unmarked)', 'inhibition at 3 µM', 120),
  ('CC(O)(CSc1ccc([N+](=O)[O-])cc1)c1cc2cc(Cl)c(C(F)(F)F)cc2[nH]1 (centres unmarked)', 'inhibition at 3 µM', 83.5),
  ('CC(C)CSCC(C)(O)c1cc2cc([N+](=O)[O-])c(C(F)(F)F)cc2[nH]1 (centres unmarked)', 'inhibition at 3 µM', 80),
  ('CCC(O)(CS(=O)(=O)CC)c1cc2cc([N+](=O)[O-])c(C(F)(F)F)cc2[nH]1 (centres unmarked)', 'inhibition at 3 µM', 90);
